Attribute: residual activity
# assay-system: Tyrosine-protein kinase ITK/TSK (Homo sapiens)
# condition-context: at 10 µM

>  <compound-string>
c1ccc(-c2cnc(Nc3ccc(OCCN4CCCC4)cc3)s2)cc1

>  <residual activity (%)>
30

$$$$
>  <compound-string>
COc1cc2nccc(Oc3ccc(NC(=S)NC(=O)c4ccccc4C)cc3)c2cc1OC

>  <residual activity (%)>
48

$$$$
>  <compound-string>
COc1ccc2c(c1)c(C1=C(c3c[nH]c4ccccc34)C(=O)NC1=O)cn2CCCN(C)C

>  <residual activity (%)>
79

$$$$
>  <compound-string>
CCN(CC)CCNC(=O)c1c(C)[nH]c(/C=C2\C(=O)Nc3ccc(Cl)cc32)c1C

>  <residual activity (%)>
2

$$$$
>  <compound-string>
Nc1nc(Nc2ccc(S(N)(=O)=O)cc2)nn1C(=O)c1c(F)cccc1F

>  <residual activity (%)>
40

$$$$
>  <compound-string>
Nc1ncnc2c1cnn2-c1ccccc1

>  <residual activity (%)>
97

$$$$
>  <compound-string>
COc1ccc(COc2ccc(Cc3cnc(N)nc3N)cc2OC)cc1

>  <residual activity (%)>
99

$$$$
>  <compound-string>
O=C(Nc1nc2ccccc2n1CCN1CCOCC1)c1cccc([N+](=O)[O-])c1

>  <residual activity (%)>
52

$$$$
>  <compound-string>
COc1cc2c(cc1OC)-c1n[nH]c(Nc3cccc(F)c3)c1C2

>  <residual activity (%)>
41

$$$$
>  <compound-string>
CN(C)S(=O)(=O)c1ccc2c(c1)/C(=C/c1cc3c([nH]1)CCCC3)C(=O)N2

>  <residual activity (%)>
22

$$$$

---

# assay-system: Tyrosine-protein kinase Lck (Homo sapiens)
# condition-context: at 1 µM
Assign Y to entries whose residual activity meets or exceeds 90%; assign N to the rest.

>  <compound-string>
CC(C)c1nn(-c2c(Cl)cccc2Cl)c2nc(Cc3ccc(OCCO)cc3)[nH]c(=O)c12

>  <assigned-label>
Y

$$$$
>  <compound-string>
O=C1Nc2ccccc2/C1=C\c1c(Cl)[nH]c2ccccc12

>  <assigned-label>
N

$$$$
>  <compound-string>
COc1cc2nccc(Oc3ccc(NC(=O)Nc4cc(C)on4)c(Cl)c3)c2cc1OC

>  <assigned-label>
N

$$$$
>  <compound-string>
NCCNc1ncc(C(N)=O)c(Nc2cccc(C(F)(F)F)c2)n1

>  <assigned-label>
N

$$$$

---

# assay-system: Ribosomal protein S6 kinase beta-1 (Homo sapiens)
# condition-context: at 1 µM
property-name: residual activity

>  <compound>
COc1cc2ncnc(Nc3cccc(Cl)c3)c2cc1OC

>  <assay-system>
Ribosomal protein S6 kinase beta-1 (Homo sapiens)

>  <property-name>
residual activity

>  <assay-value>
82%

$$$$
>  <compound>
Nc1nccc(-c2c(-c3ccc(F)cc3)ncn2C2CCNCC2)n1

>  <assay-system>
Ribosomal protein S6 kinase beta-1 (Homo sapiens)

>  <property-name>
residual activity

>  <assay-value>
74%

$$$$
>  <compound>
Cn1c2ccccc2c2c3c(c4c5ccccc5n(CCC#N)c4c21)CNC3=O

>  <assay-system>
Ribosomal protein S6 kinase beta-1 (Homo sapiens)

>  <property-name>
residual activity

>  <assay-value>
1%

$$$$
>  <compound>
Nc1n[nH]c2nc3ccccc3nc12

>  <assay-system>
Ribosomal protein S6 kinase beta-1 (Homo sapiens)

>  <property-name>
residual activity

>  <assay-value>
78%

$$$$
>  <compound>
O=c1c(-c2ccc(F)cc2)c(-c2ccncc2)[nH]n1-c1ccc(Cl)cc1

>  <assay-system>
Ribosomal protein S6 kinase beta-1 (Homo sapiens)

>  <property-name>
residual activity

>  <assay-value>
129%

$$$$
>  <compound>
COc1cc2nccc(Oc3ccc(NC(=O)Nc4cc(C)on4)c(Cl)c3)c2cc1OC

>  <assay-system>
Ribosomal protein S6 kinase beta-1 (Homo sapiens)

>  <property-name>
residual activity

>  <assay-value>
76%

$$$$
>  <compound>
COc1ccc2c(c1)c(C1=C(c3c[nH]c4ccccc34)C(=O)NC1=O)cn2CCCN(C)C

>  <assay-system>
Ribosomal protein S6 kinase beta-1 (Homo sapiens)

>  <property-name>
residual activity

>  <assay-value>
22%

$$$$
>  <compound>
O=C1Cc2c([nH]c3ccc(Br)cc23)-c2ccccc2N1

>  <assay-system>
Ribosomal protein S6 kinase beta-1 (Homo sapiens)

>  <property-name>
residual activity

>  <assay-value>
66%

$$$$
>  <compound>
COc1ccc(Cl)cc1NC(=O)Nc1cc(C)nc2ccccc12

>  <assay-system>
Ribosomal protein S6 kinase beta-1 (Homo sapiens)

>  <property-name>
residual activity

>  <assay-value>
97%

$$$$
>  <compound>
O=c1cc(N2CCOCC2)oc2c1ccc1ccccc12

>  <assay-system>
Ribosomal protein S6 kinase beta-1 (Homo sapiens)

>  <property-name>
residual activity

>  <assay-value>
74%

$$$$
>  <compound>
O=C(c1ccccc1)c1ccc(N2CCOCC2)cc1O

>  <assay-system>
Ribosomal protein S6 kinase beta-1 (Homo sapiens)

>  <property-name>
residual activity

>  <assay-value>
77%

$$$$
>  <compound>
NC(=O)c1cccc(-c2cc(Nc3ccc(OC(F)(F)F)cc3)ncn2)c1

>  <assay-system>
Ribosomal protein S6 kinase beta-1 (Homo sapiens)

>  <property-name>
residual activity

>  <assay-value>
97%

$$$$
>  <compound>
COc1ccc(COc2ccc(Cc3cnc(N)nc3N)cc2OC)cc1

>  <assay-system>
Ribosomal protein S6 kinase beta-1 (Homo sapiens)

>  <property-name>
residual activity

>  <assay-value>
80%

$$$$
>  <compound>
O=C1NC(=O)C(c2cn(CCCn3ccnc3)c3ccccc23)=C1Nc1ccccc1

>  <assay-system>
Ribosomal protein S6 kinase beta-1 (Homo sapiens)

>  <property-name>
residual activity

>  <assay-value>
23%

$$$$
>  <compound>
O=C(NC(NC(=S)Nc1ccc(F)c([N+](=O)[O-])c1)C(Cl)(Cl)Cl)C(c1ccccc1)c1ccccc1 (stereo not drawn)

>  <assay-system>
Ribosomal protein S6 kinase beta-1 (Homo sapiens)

>  <property-name>
residual activity

>  <assay-value>
141%

$$$$
>  <compound>
CC(C)(C)n1nc(Cc2cccc3ccccc23)c2c(N)ncnc21

>  <assay-system>
Ribosomal protein S6 kinase beta-1 (Homo sapiens)

>  <property-name>
residual activity

>  <assay-value>
118%

$$$$
>  <compound>
Nc1ncnc2[nH]nc(Nc3ccc(F)cc3)c12

>  <assay-system>
Ribosomal protein S6 kinase beta-1 (Homo sapiens)

>  <property-name>
residual activity

>  <assay-value>
91%

$$$$
>  <compound>
Oc1cccc(-c2nc(N3CCOCC3)c3oc4ncccc4c3n2)c1

>  <assay-system>
Ribosomal protein S6 kinase beta-1 (Homo sapiens)

>  <property-name>
residual activity

>  <assay-value>
68%

$$$$
>  <compound>
NC(=O)c1ccc(-c2nc(-c3ccc4c(c3)OCCO4)c(-c3ccccn3)[nH]2)cc1

>  <assay-system>
Ribosomal protein S6 kinase beta-1 (Homo sapiens)

>  <property-name>
residual activity

>  <assay-value>
74%

$$$$
>  <compound>
N#Cc1c(NC(=O)c2cccc3ccccc23)sc2c1CCCC2

>  <assay-system>
Ribosomal protein S6 kinase beta-1 (Homo sapiens)

>  <property-name>
residual activity

>  <assay-value>
91%

$$$$
>  <compound>
O=C(Nc1ccc(Cl)cc1)c1ccccc1NCc1ccncc1

>  <assay-system>
Ribosomal protein S6 kinase beta-1 (Homo sapiens)

>  <property-name>
residual activity

>  <assay-value>
135%

$$$$
>  <compound>
CC(C)c1nn(-c2c(Cl)cccc2Cl)c2nc(Cc3ccc(OCCO)cc3)[nH]c(=O)c12

>  <assay-system>
Ribosomal protein S6 kinase beta-1 (Homo sapiens)

>  <property-name>
residual activity

>  <assay-value>
81%

$$$$
>  <compound>
CC(C)N(CCC(=O)c1ccc2ccccc2c1)Cc1ccccc1

>  <assay-system>
Ribosomal protein S6 kinase beta-1 (Homo sapiens)

>  <property-name>
residual activity

>  <assay-value>
77%

$$$$

# credit: ChEMBL document CHEMBL2218924
